Data provenance is patent US20210388087A1.

Assignment: determine reported ratio of amounts bound (Z=Y/X) for the given binders.
# system-under-test: T1, CD3 epsilon homodimer protein (UniProt P07766 23-126)
# T1 construct: also called CD3 (CD3 epsilon)
# T1 sequence (P07766 23-126): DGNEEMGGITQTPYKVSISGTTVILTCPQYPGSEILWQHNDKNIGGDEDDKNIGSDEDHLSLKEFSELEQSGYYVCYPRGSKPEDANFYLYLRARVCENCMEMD
# run-description: SPR Biacore T200, CD3e homodimer on chip, vs unaltered GLS3000 antibody
Respond using a number only.

Please report the measured ratio of amounts bound (Z=Y/X) for GLS3000 H34S (antibody, name in Kabat numbering, V domains shown, one-arm IgG as m2) VH: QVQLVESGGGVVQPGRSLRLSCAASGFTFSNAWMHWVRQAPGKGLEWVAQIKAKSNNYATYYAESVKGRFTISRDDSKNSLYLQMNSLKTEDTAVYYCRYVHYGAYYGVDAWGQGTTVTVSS VL: DIVMTQSPLSLPVTPGEPASISCRSSQSLVHSNRNTYLSWYQQKPGQAPRLLIYKVSNRFSGVPDRFSGSGSGTDFTLKISRVEAEDVGVYYCGQGTQVPYTFGQGTKLEIK
0.78

Please report the measured ratio of amounts bound (Z=Y/X) for GLS3000 F55I (antibody, name in Kabat numbering, V domains shown, one-arm IgG as m2) VH: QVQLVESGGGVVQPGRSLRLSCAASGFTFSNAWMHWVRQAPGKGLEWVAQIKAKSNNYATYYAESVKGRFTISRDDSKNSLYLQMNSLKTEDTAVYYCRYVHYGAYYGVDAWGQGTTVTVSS VL: DIVMTQSPLSLPVTPGEPASISCRSSQSLVHSNRNTYLHWYQQKPGQAPRLLIYKVSNRISGVPDRFSGSGSGTDFTLKISRVEAEDVGVYYCGQGTQVPYTFGQGTKLEIK
0.82

Please report the measured ratio of amounts bound (Z=Y/X) for GLS3000 L27bY (antibody, name in Kabat numbering, V domains shown, one-arm IgG as m2) VH: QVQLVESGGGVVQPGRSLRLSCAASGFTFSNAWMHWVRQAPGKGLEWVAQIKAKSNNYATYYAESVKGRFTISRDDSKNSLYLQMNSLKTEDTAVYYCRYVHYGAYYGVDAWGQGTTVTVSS VL: DIVMTQSPLSLPVTPGEPASISCRSSQSYVHSNRNTYLHWYQQKPGQAPRLLIYKVSNRFSGVPDRFSGSGSGTDFTLKISRVEAEDVGVYYCGQGTQVPYTFGQGTKLEIK
0.25
